Tested on: NCI-H226 lung
Assay: NCI tumour cell line growth inhibition, 48 h
measured parameter: TGI (µM)

# molecule, endpoint unit, rel, measured value
measured = [
    ("CCOC(=O)c1ccc(Nc2nc3cc(C(F)(F)F)ccc3nc2-c2ccccc2)cc1", "µM", ">", 100),
    ("CC(C)=CC1C(COC(=O)c2cc3c(cc2Cl)OCO3)C1(C)C (stereo not given)", "µM", "=", 91.2),
    ("Cc1ccc([N+](=O)[O-])c2c(NCCNC(=O)Cn3ccnc3[N+](=O)[O-])ccnc12", "µM", "=", 88),
    ("COc1cc2cc(C(=O)N3CC(CCl)c4c3cc([N+](=O)[O-])c3ccccc43)[nH]c2c(OC)c1OC (stereo not given)", "µM", ">", 100),
    ("C/C(=N\\NS(=O)(=O)c1ccc(C)cc1)C(CN1CCOCC1)C(c1ccccc1)c1c(O)c2ccccc2oc1=O (stereo not given)", "µM", ">", 100),
]

---

Tested on: T-47D breast
Assay: NCI tumour cell line growth inhibition, 48 h
Measured GI50 by item
measured parameter: GI50

# compound, measured value
measured = [
    ("Cc1cc2c(cc1Cl)SC1=CC(=O)N(c3ccccc3)C1=NS2(=O)=O", "13 µM"),
    ("Oc1ccc2cc(Br)ccc2c1-c1c(O)ccc2cc(Br)ccc12", "4.61 µM"),
    ("CC(C)(C)NC(C1=CC(C)(C)c2ccccc2C1=O)c1ccccc1 (stereo not given)", "1.12 µM"),
    ("C[C@@H]1CN(C(=O)c2ccc(NC(=O)c3cc(O[C@H](C)c4c(Cl)ccc(F)c4Cl)c(N)nn3)cc2)C[C@H](C)N1", "4.51 µM"),
    ("COc1cc2c3c(n(CCCCOC(=O)C(F)(F)F)c(=O)c2cc1OC)-c1cc2c(cc1C3=O)OCO2", "> 100 µM"),
    ("N#C/C(=C\\c1ccc(-c2ccc(Cl)cc2)o1)C(=O)Nc1ncc(Cc2ccc(Cl)cc2)s1", "1.91 µM"),
    ("CC(C)=CCC[C@H](C)[C@@H]1CC[C@]2(C)C3CC[C@]4(OC4(C)C)C(CCCO)[C@]3(C)CC[C@@]12C (stereo not given in full)", "17.4 µM"),
    ("COc1ccc(N(CC(=O)NCCC[Te]c2ccccc2)C(=O)c2ccccc2)cc1", "3.4 µM"),
    ("COc1cc2nc3sc(C(=O)Nc4ccc(C(=O)OC(C)C)cc4)c(C(=O)Nc4ccc(Cl)cc4C)n3c(=O)c2cc1OC", "5.59 µM"),
    ("Cc1cc(N2CCCCC2)nc(N(CCCNc2ccnc3cc(Cl)ccc23)Cc2ccco2)n1", "1.77 µM"),
]

---

Test system: SK-OV-3 ovarian
Assay: NCI tumour cell line growth inhibition, 48 h
Measured GI50 by item
measured parameter: GI50

# smiles entry, system, measured value
measured = [
    ("C[n+]1c(/C=C\\c2ccc(Cl)cc2)ccc2ccccc21", "SK-OV-3 ovarian", "46.6 µM"),
    ("Cc1cc(N2CCCCC2)nc(N(CCCNc2ccnc3cc(Cl)ccc23)Cc2ccco2)n1", "SK-OV-3 ovarian", "3.35 µM"),
    ("CCCN(CCC)C(=O)C1=Cc2ccc(-c3ccc(C(=O)N4CCCC4)cc3)cc2N=C(N)C1", "SK-OV-3 ovarian", "18.2 µM"),
    ("Cc1nn(-c2nc3ccccc3s2)c(C)c1Oc1ccccc1O", "SK-OV-3 ovarian", "7.57 µM"),
    ("Cn1cncc1[C@@](N)(c1ccc(Cl)cc1)c1ccc2c(c1)c(-c1cccc(Cl)c1)cc(=O)n2C", "SK-OV-3 ovarian", "7.24 µM"),
    ("CCC[CH2][Sn]1([CH2]CCC)[O]C(=O)c2cc(I)cc(I)c2[O]1", "SK-OV-3 ovarian", "2.09 µM"),
    ("Cn1nccc1Nc1nccc(-c2cc3c(s2)C(C)(C)N(CCN2CCOCC2)C3=O)n1", "SK-OV-3 ovarian", "17 µM"),
    ("Cn1cc(C2=C(c3cccc4ccccc34)C(=O)NC2=O)c2ccccc21", "SK-OV-3 ovarian", "8.35 µM"),
    ("Oc1ccc(-c2nnc3sc(-c4ccc(F)c(Oc5ccccc5)c4)nn23)cc1", "SK-OV-3 ovarian", "44.6 µM"),
    ("Cn1cc(-c2nc(-c3c[nH]c4ncccc34)cs2)c2cc(F)ccc21", "SK-OV-3 ovarian", "3.9 µM"),
]
